Provenance of the data: PubChem BioAssay AID2060502

test system: 885724-159-R-J1-PDC complex spheroid viability; assay: Anticancer human tumor 885724-159-R-J1-PDC patient-derived pancreatic adenocarcinoma cell line growth inhibition [GQUAD]; details: second compound 0.0316 µM; first compound 3.16 µM; hits give low values
quantity_measured: viability, T/C

Before answering, review these 3 worked examples.
1. C#Cc1c(F)ccc2cc(O)cc(-c3ncc4c(N5CC6CCC(C5)N6)nc(OCC56CCCN5CC(F)C6)nc4c3F)c12 (stereo not given) + Cc1cnc(CNC(=O)c2c(=O)c3ccc(N4CCCN(C)CC4)nc3n3c2sc2ccccc23)cn1; 67%
2. COc1ccc([C@@H](O)c2cc(-c3ncnc4cc(N5CCOCC5)ccc34)c(F)cc2Cl)nn1 + Cc1cnc(CNC(=O)c2c(=O)c3ccc(N4CCCN(C)CC4)nc3n3c2sc2ccccc23)cn1; 61.6%
3. Nc1ccn(C2OC(CO)C(O)C2(F)F)c(=O)n1 (stereo not given) + Cc1cnc(CNC(=O)c2c(=O)c3ccc(N4CCCN(C)CC4)nc3n3c2sc2ccccc23)cn1; 74.9%

Please give viability, T/C, item by item, for the list that follows.
1. COc1cccc2c1C(=O)c1c(O)c3c(c(O)c1C2=O)CC(O)(C(=O)CO)CC3OC1CC(N)C(O)C(C)O1 (stereo not given) + Cc1[nH]c2ccc(F)cc2c1-c1nc2c3cccnc3c3ncccc3c2[nH]1
2. COc1cccc2c1C(=O)c1c(O)c3c(c(O)c1C2=O)CC(O)(C(=O)CO)CC3OC1CC(N)C(O)C(C)O1 (stereo not given) + Cc1cnc(CNC(=O)c2c(=O)c3ccc(N4CCCN(C)CC4)nc3n3c2sc2ccccc23)cn1

1: 34.8%; 2: 39.8%

====

System: 885724-159-R-J1-PDC complex spheroid viability
Experiment: Anticancer human tumor 885724-159-R-J1-PDC cell line growth inhibition [GQUAD];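 further: spheroids exposed to agents for seven days before readout; percent of vehicle control viability where 100% = DMSO wells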
Conditions: second compound 1 µM; first compound 0.316 µM; hits give low values
Excerpt: DNA G-quadruplex Stabilizer Agents in Combinations in Complex Spheroids A high-throughput screen of multi-cell type tumor spheroids was designed to identify active combinations of DNA G-quadruplex stabilizer agents and targeted small molecules. […] Compounds. […] If the clinical Cmax for an agent had not been determined, the highest concentration tested was 10 microM. […]
Output 1 for records whose viability, T/C is lower than 80%, 0 for records at or above 80%.

1. O=c1[nH]cc(F)c(=O)[nH]1 + Cc1cnc(CNC(=O)c2c(=O)c3ccc(N4CCCN(C)CC4)nc3n3c2sc2ccccc23)cn1; 0
2. COc1cc(C2c3cc4c(cc3C(OC3OC5COC(C)OC5C(O)C3O)C3COC(=O)C23)OCO4)cc(OC)c1O (stereo unspecified) + CN(C)c1ccc(Nc2c3ccc(NC(=O)CCN4CCCC4)cc3nc3cc(NC(=O)CCN4CCCC4)ccc23)cc1; 1

Please determine if Cn1ncnc1[C@H]1c2n[nH]c(=O)c3cc(F)cc(c23)N[C@@H]1c1ccc(F)cc1 + Cc1cnc(CNC(=O)c2c(=O)c3ccc(N4CCCN(C)CC4)nc3n3c2sc2ccccc23)cn1 is below 80% in terms of viability, T/C.
0

Please determine if CCCS(=O)(=O)Nc1ccc(F)c(C(=O)c2c[nH]c3ncc(-c4ccc(Cl)cc4)cc23)c1F + Cc1[nH]c2ccc(F)cc2c1-c1nc2c3cccnc3c3ncccc3c2[nH]1 is below 80% in terms of viability, T/C.
0

Please determine if CCc1c2c(nc3ccc(O)cc13)-c1cc3c(c(=O)n1C2)COC(=O)[C@]3(O)CC + CN(C)c1ccc(Nc2c3ccc(NC(=O)CCN4CCCC4)cc3nc3cc(NC(=O)CCN4CCCC4)ccc23)cc1 is below 80% in terms of viability, T/C.
1

Please determine if CC1COCCN1c1cc(C2(O)CC3CCC(C2)O3)c2cnn(-c3ccn[nH]3)c2n1 (stereo unspecified) + Cc1[nH]c2ccc(F)cc2c1-c1nc2c3cccnc3c3ncccc3c2[nH]1 is below 80% in terms of viability, T/C.
1

Please determine if O=C(c1cc(Cc2n[nH]c(=O)c3ccccc23)ccc1F)N1CCN(C(=O)C2CC2)CC1 + CN(C)c1ccc(Nc2c3ccc(NC(=O)CCN4CCCC4)cc3nc3cc(NC(=O)CCN4CCCC4)ccc23)cc1 is below 80% in terms of viability, T/C.
0

Please determine if Cc1[nH]c2ccccc2c1CCNCc1ccc(/C=C/C(=O)NO)cc1 + CN(C)c1ccc(Nc2c3ccc(NC(=O)CCN4CCCC4)cc3nc3cc(NC(=O)CCN4CCCC4)ccc23)cc1 is below 80% in terms of viability, T/C.
1

Please determine if Cc1[nH]c2ccccc2c1CCNCc1ccc(/C=C/C(=O)NO)cc1 + Cc1cnc(CNC(=O)c2c(=O)c3ccc(N4CCCN(C)CC4)nc3n3c2sc2ccccc23)cn1 is below 80% in terms of viability, T/C.
1
